For each record, write down the corresponding pIC50.
# TEST_SYSTEM: bovine trypsin (Bos taurus)
# Sequence (P00760 24-246): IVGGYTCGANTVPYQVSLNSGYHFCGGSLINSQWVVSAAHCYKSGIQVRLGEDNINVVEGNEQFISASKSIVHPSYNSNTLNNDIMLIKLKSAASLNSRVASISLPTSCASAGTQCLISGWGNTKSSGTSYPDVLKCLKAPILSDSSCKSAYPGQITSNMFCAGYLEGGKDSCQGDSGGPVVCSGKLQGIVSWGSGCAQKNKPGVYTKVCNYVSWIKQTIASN
# EXPERIMENTAL_PROTOCOL: Trypsin inhibitory activity of peptides (BApNA hydrolysis, OD405; IC50, Ki, residual activity)
# Type: biochemical
# APPLIED_CONDITIONS: trypsin 50 nM, BApNA 1.22 mM; read-out: IC50
Bridge positions count the residues as written; N and C are the ends. Square brackets hold non-standard residues; d marks the D form. Peptide text beside a SMILES is read from it. Nle = CCCC[C@H](N)C(=O)O
Remember the convention: pIC50 equals -log10 of concentration in molar.

Read the entry CC[C@H](C)[C@@H]1NC(=O)[C@@H](N)CSSC[C@@H](C(=O)N[C@@H](Cc2ccccc2)C(=O)O)NC(=O)[C@H]([C@@H](C)CC)NC(=O)[C@@H]2CCCN2C(=O)[C@@H]2CCCN2C(=O)[C@H]([C@@H](C)CC)NC(=O)[C@H](CO)NC(=O)[C@H](CCCCN)NC(=O)[C@H]([C@@H](C)O)NC(=O)[C@H](C)NC(=O)[C@H](CCCNC(=N)N)NC1=O [BT73] (H-CIRATKSIPPICF-OH; disulfide 1-12; N-terminus and C-terminus assumed) and write its reported pIC50.
6.92

Read the entry CC[C@H](C)[C@@H]1NC(=O)[C@@H]2CCCN2C(=O)[C@@H]2CCCN2C(=O)[C@H]([C@@H](C)CC)NC(=O)[C@H](CO)NC(=O)[C@H](CCCCN)NC(=O)[C@H]([C@@H](C)O)NC(=O)[C@H](C)NC(=O)[C@H](CO)NC(=O)CNC(=O)[C@@H](N)CSSC[C@@H](C(=O)N[C@@H](Cc2ccccc2)C(=O)N2CCC[C@H]2C(=O)N[C@@H](CC(=O)O)C(=O)O)NC1=O [BT6] (H-CGSATKSIPPICFPD-OH; disulfide 1-12; N-terminus and C-terminus assumed) and write its reported pIC50.
6.54

Read the entry CCCC[C@@H]1NC(=O)[C@H](CCCNC(=N)N)NC(=O)CNC(=O)[C@@H](N)CSSC[C@@H](C(=O)N[C@@H](Cc2ccccc2)C(=O)O)NC(=O)[C@H]([C@@H](C)CC)NC(=O)[C@@H]2CCCN2C(=O)[C@@H]2CCCN2C(=O)[C@H]([C@@H](C)CC)NC(=O)[C@H](CO)NC(=O)[C@H](CCCCN)NC(=O)[C@H]([C@@H](C)O)NC1=O [BT50] (H-CGR[Nle]TKSIPPICF-OH; disulfide 1-12; C-terminus assumed) and write its reported pIC50.
7.15

Read the entry CC[C@H](C)[C@@H]1NC(=O)[C@@H]2CCCN2C(=O)[C@@H]2CCCN2C(=O)[C@H]([C@@H](C)CC)NC(=O)[C@H](CO)NC(=O)[C@H](CCCCN)NC(=O)[C@H]([C@@H](C)O)NC(=O)[C@H](C)NC(=O)[C@H](CCCNC(=N)N)NC(=O)[C@H](C)NC(=O)[C@@H](N)CSSC[C@@H](C(=O)N[C@@H](Cc2ccccc2)C(=O)O)NC1=O [BT67] (H-CARATKSIPPICF-OH; disulfide 1-12) and write its reported pIC50.
7.30

Read the entry CC[C@H](C)[C@@H]1NC(=O)[C@@H]2CCCN2C(=O)[C@@H]2CCCN2C(=O)[C@H]([C@@H](C)CC)NC(=O)[C@H](CO)NC(=O)[C@H](CCCCN)NC(=O)[C@H]([C@@H](C)O)NC(=O)[C@H](C)NC(=O)[C@H](CCCNC(=N)N)NC(=O)CNC(=O)[C@@H](N)CSSC[C@@H](C(=O)N[C@@H](Cc2ccccc2)C(=O)O)NC1=O [BT9] (H-CGRATKSIPPICF-OH; disulfide 1-12; C-terminus assumed) and write its reported pIC50.
7.15

Read the entry CC[C@H](C)[C@@H]1NC(=O)[C@@H]2CCCN2C(=O)[C@@H]2CCCN2C(=O)[C@H]([C@@H](C)CC)NC(=O)[C@H](CO)NC(=O)[C@H](CCCCN)NC(=O)[C@H]([C@@H](C)O)NC(=O)[C@H](C)NC(=O)[C@H](CCCNC(=N)N)NC(=O)[C@H](CCCNC(=N)N)NC(=O)[C@@H](N)CSSC[C@@H](C(=O)N[C@@H](Cc2ccccc2)C(=O)O)NC1=O [BT76] (H-CRRATKSIPPICF-OH; disulfide 1-12; N-terminus and C-terminus assumed) and write its reported pIC50.
7.30

Read the entry CC[C@H](C)[C@@H]1NC(=O)[C@@H]2CCCN2C(=O)[C@@H]2CCCN2C(=O)[C@H]([C@@H](C)CC)NC(=O)[C@H](CO)NC(=O)[C@H](CCCCN)NC(=O)[C@H]([C@@H](C)O)NC(=O)[C@H](C)NC(=O)[C@H](CCCNC(=N)N)NC(=O)[C@@H]2CCCN2C(=O)[C@@H](N)CSSC[C@@H](C(=O)N[C@@H](Cc2ccccc2)C(=O)O)NC1=O [BT66] (H-CPRATKSIPPICF-OH; disulfide 1-12; C-terminus assumed) and write its reported pIC50.
7.22

----------
# TEST_SYSTEM: chymotrypsin (Bos taurus, UniProt P00766)
# EXPERIMENTAL_PROTOCOL: in vitro
# APPLIED_CONDITIONS: isolated enzyme chymotrypsin, pH 7.8, Remaining peak area (%)/chymotrypsin
PROPERTY_NAME: remaining at 0.05 h, 60 μM (%)
Quick note: give the figure in %, leave out the unit.

Read the entry CC[C@H](C)[C@H](N)C(=O)N[C@@H](Cc1c[nH]cn1)C(=O)N[C@H](C(=O)N[C@H](C(=O)N[C@H](C(=O)N1CCC[C@H]1C(=O)N[C@@H](C)C(=O)N[C@@H](CC(=O)O)C(=O)N[C@@H](CC(C)C)C(=O)N[C@@H](Cc1c[nH]c2ccccc12)C(=O)N[C@@H](CC(=O)O)C(=O)N[C@@H](Cc1c[nH]c2ccccc12)C(=O)N[C@H](C(=O)N[C@@H](CC(N)=O)C(=O)O)[C@@H](C)CC)[C@@H](C)CC)[C@@H](C)O)C(C)C [17A, reference compound] and write its reported remaining at 0.05 h, 60 μM.
59.2

----------
# TEST_SYSTEM: bovine trypsin (Bos taurus)
# EXPERIMENTAL_PROTOCOL: Trypsin inhibitory activity of peptides (BApNA hydrolysis, OD405; IC50, Ki, residual activity)
# Format: biochemical
# APPLIED_CONDITIONS: peptide 0.0488 μM
Bridge positions count the residues as written; N and C are the ends. Square brackets hold non-standard residues; d marks the D form. Peptide text beside a SMILES is read from it. Nle = CCCC[C@H](N)C(=O)O
For each record, write down the corresponding Residual trypsin activity.

Read the entry CC[C@H](C)[C@@H]1NC(=O)[C@@H]2CCCN2C(=O)[C@@H]2CCCN2C(=O)[C@H]([C@@H](C)CC)NC(=O)[C@H](CO)NC(=O)[C@H](CCCCN)NC(=O)[C@H]([C@@H](C)O)NC(=O)[C@H](CCC(N)=O)NC(=O)[C@H](CCCNC(=N)N)NC(=O)CNC(=O)[C@@H](N)CSSC[C@@H](C(=O)N[C@@H](Cc2ccccc2)C(=O)O)NC1=O [BT54] (H-CGRQTKSIPPICF-OH; disulfide 1-12; C-terminus assumed) and write its reported Residual trypsin activity.
65.8 ± 6.7%

Read the entry CC[C@H](C)[C@@H]1NC(=O)[C@H](CO)NC(=O)[C@H](CCCCN)NC(=O)[C@H]([C@@H](C)O)NC(=O)[C@H](C)NC(=O)[C@H](CCCNC(=N)N)NC(=O)CNC(=O)[C@@H](N)CSSC[C@@H](C(=O)N[C@@H](Cc2ccc(O)cc2)C(=O)O)NC(=O)[C@H](CCC(N)=O)NC(=O)[C@@H]2CCCN2C(=O)[C@@H]2CCCN2C1=O [BT12] (H-CGRATKSIPPQCY-OH; disulfide 1-12; N-terminus and C-terminus assumed) and write its reported Residual trypsin activity.
100.5 ± 2.0%

Read the entry CC[C@H](C)[C@@H]1NC(=O)[C@@H]2CCCN2C(=O)[C@@H]2CCCN2C(=O)[C@H]([C@@H](C)CC)NC(=O)[C@H](CO)NC(=O)[C@H](CCCCN)NC(=O)[C@H]([C@@H](C)O)NC(=O)[C@H](C)NC(=O)[C@H](CCCNC(=N)N)NC(=O)CNC(=O)[C@@H](N)CSSC[C@@H](C(=O)N[C@@H](Cc2ccccc2)C(=O)O)NC1=O [BT9] (H-CGRATKSIPPICF-OH; disulfide 1-12; C-terminus assumed) and write its reported Residual trypsin activity.
68.1 ± 1.4%

Read the entry CC[C@H](C)[C@@H]1NC(=O)[C@@H]2CCCN2C(=O)[C@@H]2CCCN2C(=O)[C@H]([C@@H](C)CC)NC(=O)[C@H](CO)NC(=O)[C@H](CCCCN)NC(=O)[C@H]([C@@H](C)O)NC(=O)[C@H](C)NC(=O)[C@H](CCCNC(=N)N)NC(=O)[C@@H]2CCCN2C(=O)[C@@H](N)CSSC[C@@H](C(=O)N[C@@H](Cc2ccccc2)C(=O)O)NC1=O [BT66] (H-CPRATKSIPPICF-OH; disulfide 1-12; C-terminus assumed) and write its reported Residual trypsin activity.
66.8 ± 8.2%

Read the entry CC[C@H](C)[C@@H]1NC(=O)[C@@H]2CCCN2C(=O)[C@@H]2CCCN2C(=O)[C@H]([C@@H](C)CC)NC(=O)[C@H](CO)NC(=O)[C@H](CCCCN)NC(=O)[C@H]([C@@H](C)O)NC(=O)[C@H](C)NC(=O)[C@H](CCCNC(=N)N)NC(=O)CNC(=O)[C@@H](N)CSSC[C@@H](C(=O)N[C@@H](Cc2ccccc2)C(=O)N2CCC[C@H]2C(=O)N[C@@H](CC(=O)O)C(=O)O)NC1=O [BT5] (H-CGRATKSIPPICFPD-OH; disulfide 1-12; N-terminus and C-terminus assumed) and write its reported Residual trypsin activity.
83.1 ± 0.4%

Read the entry CCCC[C@@H]1NC(=O)[C@H](CCCNC(=N)N)NC(=O)CNC(=O)[C@@H](N)CSSC[C@@H](C(=O)N[C@@H](Cc2ccccc2)C(=O)O)NC(=O)[C@H]([C@@H](C)CC)NC(=O)[C@@H]2CCCN2C(=O)[C@@H]2CCCN2C(=O)[C@H]([C@@H](C)CC)NC(=O)[C@H](CO)NC(=O)[C@H](CCCCN)NC(=O)[C@H]([C@@H](C)O)NC1=O [BT50] (H-CGR[Nle]TKSIPPICF-OH; disulfide 1-12; C-terminus assumed) and write its reported Residual trypsin activity.
73.5 ± 1.6%
